Sourced from patent US20220177587A1

# target.system: CD28 (Homo sapiens, UniProt P10747)
# experiment.notes: Jurkat/IL2 + K562/OKT3/PD-L1 reporter assay
# Type: cell-based
# Set-up: host or cells: Jurkat cells expressing an IL-2-luciferase reporter
# cond: Table E8; K562/OKT3/PD-L1 aAPC; 50 nM
observable: Fold Increase over WT CD80-IgV-Fe
In your answer, state the number alone without any accompanying words.

Look at this molecule and give its reported Fold Increase over WT CD80-IgV-Fe. E35D/M38T/M43V/M47V/N48R/L85Q (protein, UniProt P33681 35-288, looked up, variant E35D M38T M43V M47V N48R L85Q, Fc fusion) T-lymphocyte activation …: VIHVTKEVKEVATLSCGHNVSVEELAQTRIYWQKDKKTVLTMVSGDVRIWPEYKNRTIFDITNNLSIVILALRPSDEGTYECVVQKYEKDAFKREHLAEVTLSVKADFPTPSISDFEIPTSNIRRIICSTSGGFPEPHLSWLENGEELNAINTTVSQDPETELYAVSSKLDFNMTTNHSFMCLIKYGHLRVNQTFNWNTTKQEHFPDNLLPSWAITLISVNGIFVICCLTYCFAPRCRERRRNERLRRESVRPV
3.3

What value of Fold Increase over WT CD80-IgV-Fe has been recorded for this entry: E35D/M47I/L85Q/D90G (protein, UniProt P33681 35-288, looked up, variant E35D M47I L85Q D90G) T-lymphocyte activation …: VIHVTKEVKEVATLSCGHNVSVEELAQTRIYWQKDKKMVLTMMSGDINIWPEYKNRTIFDITNNLSIVILALRPSDEGTYECVVQKYEKGAFKREHLAEVTLSVKADFPTPSISDFEIPTSNIRRIICSTSGGFPEPHLSWLENGEELNAINTTVSQDPETELYAVSSKLDFNMTTNHSFMCLIKYGHLRVNQTFNWNTTKQEHFPDNLLPSWAITLISVNGIFVICCLTYCFAPRCRERRRNERLRRESVRPV
7.0

Return reported Fold Increase over WT CD80-IgV-Fe; argument: T28Y/Q33H/E35D/D46V/M47I/A71G (protein, CD80 v291 ECD) VIHVTKEVKEVATLSCGHNVSVEELAQYRIYWHKDKKMVLTMMSGVINIWPEYKNRTIFDITNNLSIVILGLRPSDEGTYECVVLKYEKDAFKREHLAEVTLSVKADFPTPSISDFETPTSNIRRIICSTSGGFPEPHLSWLENGEELNAINTTVSQDPETELYAVSSKLDFNMTTNHSFMCLIKYGHLRVNQTFNWNTTKQEHFPDN
2.8

Look up Fold Increase over WT CD80-IgV-Fe for this molecule: E35D/M47V/N48T/L85Q (protein, UniProt P33681 35-288, looked up, variant E35D M47V N48T L85Q) T-lymphocyte activation …: VIHVTKEVKEVATLSCGHNVSVEELAQTRIYWQKDKKMVLTMMSGDVTIWPEYKNRTIFDITNNLSIVILALRPSDEGTYECVVQKYEKDAFKREHLAEVTLSVKADFPTPSISDFEIPTSNIRRIICSTSGGFPEPHLSWLENGEELNAINTTVSQDPETELYAVSSKLDFNMTTNHSFMCLIKYGHLRVNQTFNWNTTKQEHFPDNLLPSWAITLISVNGIFVICCLTYCFAPRCRERRRNERLRRESVRPV
4.4
